SUBJECT OF TEST: Sodium/potassium-transporting ATPase
EXPERIMENT: Inhibition of hog kidney Na+, K+-dependent ATPase
MEASUREMENT PARAMETERS: read-out: I50
MEASURE: IC50 (nM)
Give bare numbers, in nM.

Worked set:
COMPOUND	IC50, nM
C[C@]12CC[C@H](O[C@H]3O[C@H](CO)[C@@H](O)[C@H](O)[C@H]3O)C[C@H]1CC[C@@H]1[C@@H]2CC[C@]2(C)[C@@H](C3=CC(=O)OC3)CC[C@]12O (stereo in doubt; 4b)	16
C[C@]12CC[C@H](O[C@H]3O[C@H](CO)[C@@H](O)[C@H](O)[C@H]3O)C[C@H]1CC[C@@H]1[C@@H]2CC[C@]2(C)[C@@H](C3=CC(=O)OC3)CC[C@]12O (stereo in doubt; 4c)	93.3
C[C@]12CC[C@H](O[C@@H]3O[C@@H](CO)[C@H](O)[C@@H](O)[C@H]3O)C[C@H]1CC[C@@H]1[C@@H]2CC[C@]2(C)[C@@H](C3=CC(=O)OC3)CC[C@]12O	87
C[C@@H]1O[C@@H](O[C@H]2CC[C@@]3(C)[C@H](CC[C@@H]4[C@@H]3CC[C@]3(C)[C@@H](C5=CC(=O)OC5)CC[C@]43O)C2)[C@H](O)[C@H](O)[C@H]1O (stereo in doubt; form 2)	6.79
CC12CCC(O[C@H]3O[C@H](CO)[C@H](O)[C@H](O)[C@H]3O)CC1CCC1C2CC[C@]2(C)C(C3=CC(=O)OC3)CCC12O (stereo in doubt; form 2)	17.8

# batch: return IC50 for each of the 8 compounds below
1. C[C@]12CC[C@H](O[C@H]3O[C@H](CO)[C@@H](O)[C@H](O)[C@H]3O)C[C@H]1CC[C@@H]1[C@@H]2CC[C@]2(C)[C@@H](C3=CC(=O)OC3)CC[C@]12O (stereo in doubt; 4a)
2. C[C@]12CC[C@H](O[C@H]3O[C@H](CO)[C@@H](O)[C@H](O)[C@H]3O)C[C@H]1CC[C@@H]1[C@@H]2CC[C@]2(C)[C@@H](C3=CC(=O)OC3)CC[C@]12O (stereo in doubt; 3c)
3. C[C@H]1O[C@@H](O[C@H]2CC[C@@]3(C)[C@H](CC[C@@H]4[C@@H]3CC[C@]3(C)[C@@H](C5=CC(=O)OC5)CC[C@]43O)C2)C[C@H](O)[C@@H]1O
4. C[C@]12CC[C@H](O[C@H]3O[C@H](CO)[C@@H](O)[C@H](O)[C@H]3O)C[C@H]1CC[C@@H]1[C@@H]2CC[C@]2(C)[C@@H](C3=CC(=O)OC3)CC[C@]12O (stereo in doubt; 3d)
5. C[C@]12CC[C@H](O[C@H]3O[C@H](CO)[C@@H](O)[C@H](O)[C@H]3O)C[C@H]1CC[C@@H]1[C@@H]2CC[C@]2(C)[C@@H](C3=CC(=O)OC3)CC[C@]12O (stereo in doubt; 4d)
6. CC12CCC(O[C@H]3O[C@H](CO)[C@H](O)[C@H](O)[C@H]3O)CC1CCC1C2CC[C@]2(C)C(C3=CC(=O)OC3)CCC12O (stereo in doubt; form 1)
7. C[C@@H]1O[C@@H](O[C@H]2CC[C@@]3(C)[C@H](CC[C@@H]4[C@@H]3CC[C@]3(C)[C@@H](C5=CC(=O)OC5)CC[C@]43O)C2)[C@H](O)[C@H](O)[C@H]1O (stereo in doubt; form 1)
8. C[C@]12CC[C@H](O[C@@H]3O[C@@H](CO)[C@@H](O)[C@H](O)[C@@H]3O)C[C@H]1CC[C@@H]1[C@@H]2CC[C@]2(C)[C@@H](C3=CC(=O)OC3)CC[C@]12O (stereo in doubt; form 2)

-- reply
1. 60.3
2. 129
3. 7.04
4. 38.9
5. 10.5
6. 64.5
7. 4.79
8. 10.7
